Tgt: ETS1 (UniProt P14921)
Sequence: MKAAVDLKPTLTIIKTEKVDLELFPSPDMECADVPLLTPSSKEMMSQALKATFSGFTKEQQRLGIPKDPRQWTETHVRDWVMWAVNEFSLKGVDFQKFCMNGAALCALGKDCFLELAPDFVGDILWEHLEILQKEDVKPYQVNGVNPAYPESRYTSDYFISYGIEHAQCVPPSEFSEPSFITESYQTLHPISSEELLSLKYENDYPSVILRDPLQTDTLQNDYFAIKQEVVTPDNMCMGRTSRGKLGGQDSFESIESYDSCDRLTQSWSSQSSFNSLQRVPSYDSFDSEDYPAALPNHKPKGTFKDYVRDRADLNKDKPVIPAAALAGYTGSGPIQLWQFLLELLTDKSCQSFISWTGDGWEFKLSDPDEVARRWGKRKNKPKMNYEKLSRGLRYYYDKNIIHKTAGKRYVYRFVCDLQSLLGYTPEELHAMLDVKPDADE
Assay comment: ETS1 binding intensity (PBM fluorescence), ETS1 alone (arbitrary fluorescence units); higher = stronger binding
Cond: ETS1 concentration 1 nM; RUNX1 concentration 0 nM
Quantity measured: ETS1 binding intensity
Number only, no unit.

Query block: What measured ETS1 binding intensity goes with `TGGCAGCCACATCCTGCCTGTGGCTAGGTCAACCCA` ?
Result block: 1220

Query block: What measured ETS1 binding intensity goes with `ACCCTTCCTGGAGCATTGTCGCAGCAACCACAACAG` ?
Result block: 457

Query block: What measured ETS1 binding intensity goes with `TTTACAGGAAATTACAGGGGTTAAACCAAACCACAA` ?
Result block: 986

Query block: What measured ETS1 binding intensity goes with `GTTGTCTTGCCCAAAGGAAGTGGTTACTAGACCAGA` ?
Result block: 1770

Others:
Query block: What measured ETS1 binding intensity goes with `TTGCGTCACGTCCGGCCTGCGAGTTACCGCCCACTC` ?
Result block: 690

Query block: What measured ETS1 binding intensity goes with `TTTAAGGGCGGAAAGGCTTTAGCCGCAAAATGGCTT` ?
Result block: 547

Query block: What measured ETS1 binding intensity goes with `CCTCTCAACAGCATTTCCTGGTGGTCAGATATCTGA` ?
Result block: 580

Query block: What measured ETS1 binding intensity goes with `AACCAATCGAGCGGAGGAAACCGCGGCGTTAGCGTG` ?
Result block: 568
